target system: U1A E19F:N15V (UniProt P09012 10-89, N15V;E19F)
Sequence (P09012 10-89 N15V/E19F): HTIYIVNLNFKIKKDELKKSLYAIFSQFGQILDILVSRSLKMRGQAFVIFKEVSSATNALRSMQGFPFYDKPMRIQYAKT
method summary: fluorescence polarization
pKd: −log10 of the molar value.
measured attribute: pKd

binder	experimental result
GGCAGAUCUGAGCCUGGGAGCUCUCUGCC (structured_RNA) [TAR RNA]	4.72
